assay: yeast display, Sf9 membrane polyspecificity reagent, FACS + sequencing; frameworks hold sequencing errors
Observed property: polyreactivity (PSR sort gate)

Some sequences with known polyreactivity (PSR sort gate) results, for comparison:
QVQLVESGGGLVQAGGSLRLSCAASGLIFTPYAMGWYRQAPGKERELVAAINYGGSRTYYADSVKGRFTISRDNAKNTVYLQMNSLKPEDTAVYYCAARGFTLSYVDMYYWGLGTQVTVSS = high polyreactivity
QVQLVESGGGLVQAGGSLRLSCAASGSIFKIYAMGWYRQAPGKERELVARITRRGGRTNYADSVKGRFTISRDNAKNTVYLQMNSLKPEDTAVYYCASLGRRGGDYWGQGTQVTVAS = high polyreactivity
QVQLVESGGGLVQAGGSLRLSFAASGFIFDYYAMGGYRQEPGKDRELVAAISSSGRTSYADSVKGRFTISRDNAKNTVYLQMNSLKPEDTAVYYCNATWRWTRRGYDYWGQGTQVTVSS = low polyreactivity
QVQRVESGGGLVQAGGSLRLSCAASGSTFGIYDMGWYRQSPGKEMELVARITYSGGSRYYADSVKGRFTISRDNAKNTVYLQMNSLKPEDTAVYYCAARSWPHYFRYDYWGQGTQVTVSS = high polyreactivity

Enquiry: State its polyreactivity (PSR sort gate): QVQLVESCGGLVQAGGSLRLSCAASGSISFYAMGWYRQAPGQERELVAAITTSGGRTYYADSVKGRFTISRDNAKNTVYLQMNSLKPEDTAVYYCAQQGWYYSNRDGYRWYDYWGQGTQVTVSS
Return: high polyreactivity

Enquiry: For the sequence QVQLVESGGGLVQAGGSLRLSCAASGSTFSLYDMGWYRQAPGKERELVAAISSSGGGTYYADSVKGRFTISRDNAKKTVYLQMNSLKPEDTAVYYCAARFYYYPTKYDSWGQGTQVTVSS , give its measured polyreactivity (PSR sort gate) value.
Return: high polyreactivity

Enquiry: Supply recorded polyreactivity (PSR sort gate) for QVQLVESGGGLVQAGGSLRLRCAASGSIFFYYVMGWYRQAPGKEREFVAAITYSGGSTYYADSVKGRFTISRDNAKNTVYFQMNSMQQEDTAVYYCAADYSPSIGGFWFGGRHYGYWGQGTQVTVSS here.
Return: low polyreactivity

Enquiry: Answer with the recorded polyreactivity (PSR sort gate) for the sequence listed here: QVQLVESGGGLVQAGGSLRLSCDASGFIIARNAMGWYRQAPGKERELVAAISASGGRTYYADSVKGRFTISRDNAKNTVYLQMNSLKPEDTAVYYCAARRDGRSGSYNYWGQGTQVTVSS
Return: high polyreactivity

Enquiry: Answer with the recorded polyreactivity (PSR sort gate) of QVQLVESGGGLVQAGGSLRLSCAASGSTFSTYAMGWYRQAPGKERELVAAIRWSGGSTYYADSVKGRFTISRDNAKNTVYLQMNSLKPEDTAVYYCAKGIRRWYGGSDYWGQGTQVTVSS only.
Return: low polyreactivity

Enquiry: Respond only with polyreactivity (PSR sort gate) recorded for QVQLVESGGGLVQAGGSLRLSCAASGRTFRENAMGWYRQAPGKERELVAAIRRSGGRTYYADSVKGRFTISRDNAKNTVYLQMNSLKPEDTAVYYCNAVADGYAFRRPYVTYYYWGQGTQVTVSS
Return: low polyreactivity

Enquiry: Read the entry QVQLVESGGGLLQAGGSLRLSCAASGRTFGYYAMGWYRQAPGKERELVAAISKSGGRTYYADSVKGRFTISRDNAKNTVYLQMNSLKPEDTAVYYCAADGGAIVPYYENYYWGQGTQVTVSS and write its reported polyreactivity (PSR sort gate).
Return: high polyreactivity
